EXPERIMENTAL TARGET: beta-catenin/TCF4 engagement (Homo sapiens, UniProt P35222)
Construct: expressed in transfected cells; host or cells: HEK293
EXPERIMENTAL PROTOCOL: Nano-BRET target engagement assay (B-cat-Halo & TCF4-Luc in HEK293 cells)
Assay type: cell-based
CONDITION PARAMETERS: read-out: NanoBRET Abs IC50
The following compounds are listed with their measured IC50 values.
Just the number please, in µM, no unit attached.

Study these solved cases before continuing.
| COMPOUND | TEST VALUE |
| --- | --- |
| CC(=O)N1CCC[C@]12CC=CCCCC1(CCCC=CCCCOC(=O)N3CC[C@@](C(=O)N[C@@H](Cc4ccsc4)C(=O)N[C@@H](Cc4csc5ccccc45)C(=O)N[C@@H](CCC(N)=O)C(N)=O)(C3)NC(=O)[C@H](CC(C)C)NC(=O)[C@H](Cc3ccccc3)NC(=O)[C@H](C)NC(=O)[C@H](C)NC(=O)[C@H](Cn3cc(C(C)(C)C(=O)O)nn3)NC(=O)[C@H](CC(=O)O)NC1=O)NC(=O)[C@H](CC(C)(C)C)NC(=O)[C@H](CC(=O)O)NC2=O (some centres unmarked) [I-2085] | 6.2 |
| CC(=O)N1CCC[C@]12CC=CCCCC1(CCCC=CCCCOC(=O)N3CC[C@@](C(=O)N[C@@H](Cc4ccccc4Cl)C(=O)N[C@@H](Cc4csc5ccccc45)C(=O)N[C@@H](CO)C(N)=O)(C3)NC(=O)[C@H]([C@@H](C)O)NC(=O)[C@H](Cc3ccccc3)NC(=O)[C@H](C)NC(=O)[C@H](C)NC(=O)[C@H](CC(=O)O)NC(=O)[C@H](CC(=O)O)NC1=O)NC(=O)[C@H](Cc1ccc3ccccc3c1)NC(=O)[C@H](CC(=O)O)NC2=O (some centres unmarked) [I-1115] | 24.3 |
| CC(=O)N1CCC[C@]12CC=CCCCC1(CCCC=CCCCCCC[C@@](C)(C(=O)N[C@@H](Cc3cccc(Cl)c3)C(=O)N[C@@H](Cc3csc4ccccc34)C(=O)N[C@@H](CCC(N)=O)C(N)=O)NC(=O)[C@H](CC(N)=O)NC(=O)[C@H](Cc3ccccc3)NC(=O)[C@H](C)NC(=O)[C@H](C)NC(=O)[C@H](CN(CC(=O)O)CC(F)(F)F)NC(=O)[C@H](CC(=O)O)NC1=O)NC(=O)[C@H](CC(C)(C)C)NC(=O)[C@H](CC(=O)O)NC2=O (some centres unmarked) [I-933] | 22.2 |

Turning now to a further compound:
Item: CC(=O)N1CCC[C@]12CC=CCCCC1(CCCC=CCCCOC(=O)N3CC[C@@](C(=O)N[C@@H](Cc4ccsc4)C(=O)N[C@@H](Cc4csc5ccccc45)C(=O)N[C@@H](CO)C(=O)N[C@@H](C)C(N)=O)(C3)NC(=O)[C@H](CO)NC(=O)[C@H](Cc3ccccc3)NC(=O)[C@H](C)NC(=O)C(C)(C)NC(=O)[C@H](Cc3cccc(C(=O)O)c3)NC(=O)[C@H](CC(=O)O)NC1=O)NC(=O)[C@H](CC(C)(C)C)NC(=O)[C@H](CC(=O)O)NC2=O (some centres unmarked) [I-2577] | IC50: 2.7

====

EXPERIMENTAL PROTOCOL: CHI Log D procedure
Assay type: physicochemical
CONDITION PARAMETERS: pH 7.4
QUANTITY MEASURED: CHI Log D
Enter the number alone.

Study these solved cases before continuing.
| COMPOUND | CHI Log D |
| --- | --- |
| CC[C@H](C)[C@H](NC(=O)[C@H](CCC(N)=O)NC(=O)[C@H](Cc1csc2ccccc12)NC(=O)[C@H](Cc1ccccc1)NC(=O)[C@]1(C)CCCCCCC=CCCCC2(CCCC=CC[C@]3(CCCN3C(C)=O)C(=O)N[C@@H](CC(=O)O)C(=O)N[C@@H](CC(C)C)C(=O)N2)C(=O)N[C@@H](CC(=O)O)C(=O)N[C@@H](CCC(=O)O)C(=O)N[C@@H](C)C(=O)N[C@@H](C)C(=O)N[C@@H](Cc2ccccc2)C(=O)N[C@@H](CC(N)=O)C(=O)N1)C(N)=O (some centres unmarked) [I-732] | 2.121 |
| CC(=O)N1CCC[C@]12CC=CCCCC1(CCCC=CCCCCCC[C@@](C)(C(=O)N[C@@H](Cc3ccccc3)C(=O)N[C@@H](Cc3csc4ccccc34)C(=O)N[C@@H](CCC(N)=O)C(N)=O)NC(=O)[C@H](CCC(N)=O)NC(=O)[C@H](Cc3cccc(C(F)(F)F)c3)NC(=O)[C@H](C)NC(=O)[C@H](C)NC(=O)[C@H](CC(=O)O)NC(=O)[C@H](CC(=O)O)NC1=O)NC(=O)[C@H](C)NC(=O)[C@H](CC(=O)O)NC2=O (some centres unmarked) [I-378] | 2.143 |
| CC(=O)N[C@@H](Cc1ccccc1)C(=O)N[C@@H](CC(=O)O)C(=O)N[C@@H](C)C(=O)N[C@]1(C)CCCCCCC=CCOC(=O)N2CC[C@@](C(=O)N[C@@H](Cc3ccccc3)C(=O)N[C@@H](Cc3c[nH]c4ccccc34)C(=O)N[C@@H](CCC(N)=O)C(N)=O)(C2)NC(=O)[C@H](CO)NC(=O)[C@H](Cc2ccccc2)NC(=O)[C@H](C)NC(=O)[C@H](C)NC(=O)[C@H](CC(=O)O)NC(=O)[C@H](CC(=O)O)NC1=O [I-164] | 1.359 |
| CC(=O)N[C@@H](Cc1ccccc1)C(=O)N[C@@H](CC(=O)O)C(=O)N[C@@H](C)C(=O)N[C@]1(C)CCCCCCC=CCOC(=O)N2CC[C@@](C(=O)N[C@@H](Cc3ccccc3)C(=O)N[C@@H](Cc3c[nH]c4ccccc34)C(=O)N[C@@H](CCC(N)=O)C(N)=O)(C2)NC(=O)[C@H](C(C)C)NC(=O)[C@H](Cc2ccccc2)NC(=O)[C@H](C)NC(=O)[C@H](C)NC(=O)[C@H](Cc2ccccc2)NC(=O)[C@H](CC(=O)O)NC1=O | 1.993 |

Turning now to a further compound:
Item: CC(=O)N1CCC[C@]12CC=CCCCC1(CCCC=CCCCCCC[C@@](C)(C(=O)N[C@@H](Cc3ccccc3)C(=O)N[C@@H](Cc3csc4ccccc34)C(=O)N[C@@H](CCC(N)=O)C(N)=O)NC(=O)[C@H](CCC(N)=O)NC(=O)[C@H](Cc3cccs3)NC(=O)[C@H](C)NC(=O)[C@H](C)NC(=O)[C@H](CCC(=O)O)NC(=O)[C@H](CC(=O)O)NC1=O)NC(=O)[C@H](C)NC(=O)[C@H](CC(=O)O)NC2=O (some centres unmarked) [I-486] | CHI Log D: 1.97

====

EXPERIMENTAL TARGET: beta-catenin/TCF4 engagement (Homo sapiens)
Construct: expressed in transfected cells; host or cells: HEK293
Sequence (P35222 1-781): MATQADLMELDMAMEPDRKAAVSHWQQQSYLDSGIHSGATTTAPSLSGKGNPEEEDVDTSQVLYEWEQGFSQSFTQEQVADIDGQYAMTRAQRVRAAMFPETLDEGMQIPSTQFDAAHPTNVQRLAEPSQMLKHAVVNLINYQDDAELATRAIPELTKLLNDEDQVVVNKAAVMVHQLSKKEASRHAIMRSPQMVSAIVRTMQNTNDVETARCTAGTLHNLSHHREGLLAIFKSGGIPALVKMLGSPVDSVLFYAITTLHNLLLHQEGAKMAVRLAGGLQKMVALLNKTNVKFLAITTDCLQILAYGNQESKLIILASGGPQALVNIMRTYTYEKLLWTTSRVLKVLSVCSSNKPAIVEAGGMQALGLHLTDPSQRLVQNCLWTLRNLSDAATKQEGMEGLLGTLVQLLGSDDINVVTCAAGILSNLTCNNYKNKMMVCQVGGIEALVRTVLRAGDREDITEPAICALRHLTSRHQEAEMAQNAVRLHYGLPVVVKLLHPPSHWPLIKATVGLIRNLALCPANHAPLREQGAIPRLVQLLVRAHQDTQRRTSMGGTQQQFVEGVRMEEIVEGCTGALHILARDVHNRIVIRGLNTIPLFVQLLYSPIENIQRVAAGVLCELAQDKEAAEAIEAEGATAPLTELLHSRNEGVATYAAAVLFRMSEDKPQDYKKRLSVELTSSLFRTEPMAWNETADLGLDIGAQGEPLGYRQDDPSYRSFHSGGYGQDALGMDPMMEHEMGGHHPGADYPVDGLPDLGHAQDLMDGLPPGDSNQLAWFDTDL
EXPERIMENTAL PROTOCOL: Nano-BRET target engagement assay (B-cat-Halo & TCF4-Luc in HEK293 cells)
Assay type: cell-based
CONDITION PARAMETERS: read-out: NanoBRET Abs IC50
QUANTITY MEASURED: IC50 (µM)
Just the number please, in µM, no unit attached.

Item: CC(=O)N1CCC[C@]12CC=CCCCC1(CCCC=CCCCOC(=O)N3CC[C@@](C(=O)N[C@@H](Cc4ccccc4Cl)C(=O)N[C@@H](Cc4csc5ccccc45)C(=O)N[C@@H](Cc4ccccc4)C(N)=O)(C3)NC(=O)[C@H](CC(N)=O)NC(=O)[C@H](Cc3ccccc3)NC(=O)[C@H](C)NC(=O)[C@H](C)NC(=O)[C@H](Cc3cccc(C(=O)O)c3)NC(=O)[C@H](CC(=O)O)NC1=O)NC(=O)[C@H](CC(C)(C)C)NC(=O)[C@H](CC(=O)O)NC2=O (some centres unmarked) [I-2033] | IC50: 9.5
